Assay: Pharmacokinetic (PK) experiment, oral administration in rats
Type: in vivo, Male SD rats
Settings: male, SD, rat, plasma, 20 mg/kg, read-out: AUC0-24
MEASUREMENT_NAME: AUC(0-t) (ng·h/mL)
A number alone suffices; assume ng·h/mL.

Memo: O=C(N1CCCC1)N1CCN(c2ccc(-c3cn[nH]c3)c(F)c2F)CC1 [Compound 72] , reported AUC(0-t): 85800

Entry O=C1CCCN1CC1CCN(c2ccc(-c3cn[nH]c3)cc2)CC1 [Compound 1] ; AUC(0-t) = 113000

Recorded result, O=C(CCCCCc1ccccc1)NCC1CCN(c2ccc(-c3cn[nH]c3)cc2)CC1 [Compound 113] , AUC(0-t): 10100

Lookup result for O=C1CCCN1CC1CCN(c2ccc(-c3cn[nH]c3)cc2F)CC1 [Compound 2] ; measured AUC(0-t): 115000

Lab note: O=C1CCCN1CC1CCN(c2ccc(-c3cn[nH]c3)c(F)c2F)CC1 [Compound 4] gave AUC(0-t) of 58100

# compound O=C(C1CCN(c2ccc(-c3cn[nH]c3)cc2F)CC1)N1CC2CCCC2C1 (stereo not drawn) [Compound 153] ; its AUC(0-t) = 558000

Sample O=C(C1CCCC1)N1CCC(c2ccc(-c3cn[nH]c3)c(F)c2F)CC1 [Compound 98] ; AUC(0-t) observed: 98400

Item: O=S1(=O)CCCCN1CC1CCN(c2ccc(-c3cn[nH]c3)cc2F)CC1 [Compound 163] | AUC(0-t): 44100

// AUC(0-t) value for O=C(N1CCCC1)N1CCC(c2ccc(-c3cn[nH]c3)c(F)c2F)CC1 [Compound 71] : 57900

----------
Biological target: recombinant CYP4A11 (rCYP4A11) (Homo sapiens (Human), UniProt Q02928)
Sequence (Q02928 5-519): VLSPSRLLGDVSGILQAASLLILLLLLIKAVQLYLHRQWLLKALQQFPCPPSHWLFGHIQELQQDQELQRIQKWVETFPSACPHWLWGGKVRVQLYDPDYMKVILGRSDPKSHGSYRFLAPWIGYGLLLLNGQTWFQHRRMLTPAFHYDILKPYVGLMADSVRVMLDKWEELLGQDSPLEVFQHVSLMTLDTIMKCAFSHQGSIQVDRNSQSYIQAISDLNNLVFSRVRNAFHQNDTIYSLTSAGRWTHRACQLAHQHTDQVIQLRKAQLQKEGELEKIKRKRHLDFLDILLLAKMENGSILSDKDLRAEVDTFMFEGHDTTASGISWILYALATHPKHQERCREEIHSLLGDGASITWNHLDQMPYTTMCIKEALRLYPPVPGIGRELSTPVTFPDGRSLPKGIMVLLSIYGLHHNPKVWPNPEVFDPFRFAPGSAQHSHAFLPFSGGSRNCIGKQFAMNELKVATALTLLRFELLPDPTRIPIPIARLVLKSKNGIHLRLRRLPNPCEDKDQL
Assay: Inhibition of 20-HETE production by recombinant CYP4A11
Type: biochemical
Details: read-out: rCYP4A11 (% inh @ 100 nM)
Would you kindly list inhibition at 0.1 µM for each of these molecules?
Report the value in % with no unit label.

Measured inhibition at 0.1 µM of O=C1CCCCN1CC1CCN(c2c(F)cc(-c3cn[nH]c3)cc2F)CC1 : 52.3

Per the record, O=C(Nc1ccc2ccccc2c1)C1CCN(c2ccc(-c3cn[nH]c3)cc2)CC1 has inhibition at 0.1 µM of 40.6

The molecule identified as O=C(C1CCN(c2ccc(-c3cn[nH]c3)cc2)CC1)N1CCCC1 registered its inhibition at 0.1 µM at 23.3

Summary for this molecule, O=C1CCCN1CC1CCN(c2ccc(-c3ccno3)cc2)CC1 : inhibition at 0.1 µM is 1.59

Data point: O=C(NC1CCCCC1)C1CCN(c2ccc(-c3cn[nH]c3)cc2)CC1 ; inhibition at 0.1 µM = 8.98

----------
For each entry below, report its IC50 value.
System: CYP enzymes in human liver microsomes (HLM)
Assay: Inhibition of 20-HETE production in human liver microsomes (HLM)
Type: biochemical
Method: Experimental principle: The inhibitory activity of 20-HETE production is evaluated by testing the inhibitory effects of the compound on human liver microsomes (HLM), rat liver microsomes (RLM), mouse liver microsomes (MLM), or […] CYP4 subtype enzymes (CYP4F2). […]
I'd appreciate it if you included the unit after the number.

Response field IC50 (CYP enzymes in human liver microsomes (HLM)) for item O=C(NCC1CCN(c2ccc(-c3cn[nH]c3)cc2)CC1)C1CCCC1 : 43.2 nM

Note to self: IC50 of O=C(N1CCC(c2ccc(-c3cn[nH]c3)cc2F)CC1)N1CC2CCCC2C1 (stereo not drawn) with CYP enzymes in human liver microsomes (HLM) was 23.2 nM

Record O=C1c2ccccc2CCN1CC1CCN(c2ccc(-c3cn[nH]c3)cc2)CC1 / CYP enzymes in human liver microsomes (HLM), IC50 recorded as 32.8 nM

Here O=C(Nc1ccc(F)cc1)C1CCN(c2ccc(-c3cn[nH]c3)cc2)CC1 was tested on CYP enzymes in human liver microsomes (HLM), and its IC50 came to 17.6 nM

The recorded IC50 with CYP enzymes in human liver microsomes (HLM) for O=C(C1CCCC1)N1CCC(c2ccc(-c3cn[nH]c3)cc2)CC1 was 19.4 nM

Tested on CYP enzymes in human liver microsomes (HLM), the item O=C(N1CCC(c2ccc(-c3cn[nH]c3)cc2F)CC1)C1(O)CCCCC1 showed IC50 equal to 17.6 nM

Hey, CYP enzymes in human liver microsomes (HLM) data for O=C(N1CCCC1)N1CCN(c2ccc(-c3cn[nH]c3)c(F)c2F)CC1 : IC50 came out at 19.1 nM

Summary: O=C(Nc1ccccc1)C1CCN(c2ccc(-c3cn[nH]c3)cc2)CC1 , CYP enzymes in human liver microsomes (HLM), IC50 = 16.6 nM

Sample CCCCCCC(=O)NCC1CCN(c2ccc(-c3cn[nH]c3)cc2)CC1 , system: CYP enzymes in human liver microsomes (HLM). Its IC50 is 25.2 nM

Form field IC50 for item N#Cc1ccc2c(c1)CN(C(=O)C1CCN(c3ccc(-c4cn[nH]c4)cc3)CC1)C2 on CYP enzymes in human liver microsomes (HLM): 11.7 nM

Query O=C(C1CCCC1)N1CCC2(CCN(c3ccc(-c4cn[nH]c4)cc3F)C2)C1 (stereo not drawn) on CYP enzymes in human liver microsomes (HLM); IC50 returned: 32.8 nM

Kindly note: CYP enzymes in human liver microsomes (HLM), O=C1CCCN1CC1CCN(c2ccc(-c3cn[nH]c3)c(F)c2F)CC1 , IC50 value reported: 25.8 nM

Item O=C(NCC1CCCC1)N1CCN(c2ccc(-c3cn[nH]c3)c(F)c2F)CC1 was tested on CYP enzymes in human liver microsomes (HLM); the reported IC50 is 26.4 nM

Entry C[C@@H]1CN(c2ccc(-c3cn[nH]c3)c(F)c2F)CCN1C(=O)N1CCCC1 under CYP enzymes in human liver microsomes (HLM) had IC50 of 12 nM

Param item: O=C1CCCN1Cc1ccc(C2CCN(c3cn[nH]c3)CC2)cc1 [Reference 83, reference compound] ; param system: CYP enzymes in human liver microsomes (HLM); output IC50: 51.8 nM

Tested on CYP enzymes in human liver microsomes (HLM): O=S1(=O)CCCCN1CC1CCN(c2ccc(-c3cn[nH]c3)cc2F)CC1 . Observed IC50: 9.53 nM

IC50 for CYP enzymes in human liver microsomes (HLM) with input O=C1CCCCN1CC1CCN(c2ccc(-c3cn[nH]c3)cc2)CC1 equals 29.3 nM

I looked up O=C(C1CCCCC1)N1CCC(c2ccc(-c3cn[nH]c3)c(F)c2F)CC1 and its IC50 for CYP enzymes in human liver microsomes (HLM) was 25.6 nM

I looked up O=C(C1CCN(c2ccc(-c3cn[nH]c3)cc2F)CC1)N1Cc2ccccc2C1 and its IC50 for CYP enzymes in human liver microsomes (HLM) was 26.2 nM

Per the reported CYP enzymes in human liver microsomes (HLM) data, O=C1CCCCN1CC1CCN(c2c(F)cc(-c3cn[nH]c3)cc2F)CC1 has IC50 of 26 nM

Considering O=C1C2CCCC2CN1CC1CCN(c2ccc(-c3cn[nH]c3)cc2F)CC1 (stereo not drawn) , its IC50 with CYP enzymes in human liver microsomes (HLM) was recorded as 23.2 nM

Known value: CYP enzymes in human liver microsomes (HLM) IC50 of the compound O=C(NCC1CCN(c2ccc(-c3cn[nH]c3)cc2)CC1)c1ccccc1 equals 42.7 nM

Known value: CYP enzymes in human liver microsomes (HLM) IC50 of the compound O=C(N1CCCC1)N1CCC(c2ccc(-c3cn[nH]c3)c(F)c2F)CC1 equals 19.7 nM

O=S(=O)(c1ccc(F)cc1)N1CCC(c2ccc(-c3cn[nH]c3)cc2F)CC1 on CYP enzymes in human liver microsomes (HLM) gives IC50 = 16.1 nM

The compound O=C1CCCN1CC1CCN(c2ccc(-c3cn[nH]c3)cc2F)CC1 on CYP enzymes in human liver microsomes (HLM): IC50 was 28.7 nM

The observed IC50 for C[C@H]1CN(c2ccc(-c3cn[nH]c3)c(F)c2F)CCN1C(=O)N1CCCC1 when tested with CYP enzymes in human liver microsomes (HLM) stands at 11.1 nM

Result for O=C(NCc1ccccc1)C1CCN(c2ccc(-c3cn[nH]c3)c(F)c2F)CC1 , tested on CYP enzymes in human liver microsomes (HLM), IC50: 19.4 nM

Summary: O=C(C1CCCC1)N1CCC(c2ccc(-c3cn[nH]c3)c(F)c2F)CC1 , CYP enzymes in human liver microsomes (HLM), IC50 = 22 nM

Let me check: O=C(N1CCC(c2ccc(-c3cn[nH]c3)c(F)c2F)CC1)C1(O)CCCCC1 , system CYP enzymes in human liver microsomes (HLM), measured IC50 is 16.1 nM

CYP enzymes in human liver microsomes (HLM) data for O=C(N1CC=C(c2ccc(-c3cn[nH]c3)c(F)c2F)CC1)N1CCCC1 ; its IC50: 19.1 nM

Entry O=C1CCC(C(=O)N2CCC(c3ccc(-c4cn[nH]c4)c(F)c3F)CC2)CC1 : IC50 on CYP enzymes in human liver microsomes (HLM) = 23.6 nM

With CYP enzymes in human liver microsomes (HLM) as the test system, CC1CN(c2ccc(-c3cn[nH]c3)cc2F)CC(C)N1C(=O)N1CCCC1 (stereo not drawn) showed IC50 of 7.62 nM

Item O=C1CCCN1CC1CCN(c2c(F)cc(-c3cn[nH]c3)cc2F)CC1 was tested on CYP enzymes in human liver microsomes (HLM); the reported IC50 is 28.1 nM

Readout IC50 for O=C(CCCCCc1ccccc1)NCC1CCN(c2ccc(-c3cn[nH]c3)cc2)CC1 , test system CYP enzymes in human liver microsomes (HLM), was 20.6 nM

Tested on CYP enzymes in human liver microsomes (HLM): O=C(C1CCN(c2ccc(-c3cn[nH]c3)cc2F)CC1)N1CC2CCCC2C1 (stereo not drawn) . Observed IC50: 32.4 nM

IC50 of O=C(Nc1ccc2ccccc2c1)C1CCN(c2ccc(-c3cn[nH]c3)cc2)CC1 , assay on CYP enzymes in human liver microsomes (HLM), is 20 nM

Where do these numbers come from? They come from patent US20250034116A1.
